# system.name: KRAS G12D (Homo sapiens, UniProt P01116, G12D)
# Construct: made in house; host or cells: E. coli, e.g. BL21 (DE3)
# Sequence (P01116 1-188 isoform P01116-2 G12D): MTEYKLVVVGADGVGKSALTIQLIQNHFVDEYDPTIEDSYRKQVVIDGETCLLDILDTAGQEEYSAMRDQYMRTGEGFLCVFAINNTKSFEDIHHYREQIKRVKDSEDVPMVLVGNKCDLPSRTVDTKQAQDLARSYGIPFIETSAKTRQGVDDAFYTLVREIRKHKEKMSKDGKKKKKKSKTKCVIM
# assay.explanation: HTRF assay of K-Ras G12D interaction with SOS1 (PPI-HTRF)
# Format: binding
# details: HTRF, 5 nM KRAS G12D; read-out: PPI-HTRF-5 nM KRAS G12D
Kindly supply the reported IC50 values for the records listed here.

Example entries begin here.
N#Cc1c(N)sc2c(F)ccc(-c3c(Cl)cc4c(N5CCCC6(CCCN6C(=O)n6cncn6)C5)nc(OC[C@@]56CCCN5C[C@H](F)C6)nc4c3F)c12 (stereo partly drawn) = < 5 µM
C[C@H]1CN[C@]12CCN(c1nc(OC[C@@]34CCCN3C[C@H](F)C4)nc3c(F)c(-c4ccc(F)c5sc(N)c(C#N)c45)c(Cl)cc13)C2 = < 5 µM
Nc1nc2c(-c3c(Cl)cc4c(NC5CC6(CCN6)C5)nc(OC[C@@]56CCCN5C[C@H](F)C6)nc4c3F)ccc(F)c2s1 (stereo partly drawn) = < 5 µM
Nc1nc2c(-c3c(Cl)cc4c(N5CC6(CCN6)C5)nc(OC[C@@]56CCCN5C[C@H](F)C6)nc4c3F)ccc(F)c2s1 = < 5 µM
CN1CCC[C@H]1COc1nc2c(c(N3CCC4(CCN4C(=O)n4cncn4)C3)n1)CCN(c1cccc3cccc(Cl)c13)C2 (stereo partly drawn) = > 5 µM

For each of the molecules below, note its IC50.
1. N#Cc1c(N)sc2c(F)ccc(-c3c(Cl)cc4c(N5CCC6(CCN6C=O)C5)nc(OC[C@@]56CCCN5C[C@H](F)C6)nc4c3F)c12 (stereo partly drawn)
2. N#Cc1c(N)sc2c(F)ccc(-c3c(Cl)cc4c(N5CCC6(CCN6C(=O)n6cnc(C(F)(F)F)n6)C5)nc(OC[C@@]56CCCN5C[C@H](F)C6)nc4c3F)c12 (stereo partly drawn)

< 5 µM
< 5 µM

For each of the molecules below, note its IC50.
1. N#Cc1c(N)sc2c(F)ccc(-c3c(Cl)cc4c(N5CCC6(CCN6C(=O)n6cnnn6)C5)nc(OC[C@@]56CCCN5C[C@H](F)C6)nc4c3F)c12 (stereo partly drawn)
2. Nc1nc2c(-c3c(Cl)cc4c(N5CCC6(CCN6C(=O)n6cncn6)C5)nc(OC[C@@]56CCCN5C[C@H](F)C6)nc4c3F)ccc(F)c2s1 (stereo partly drawn)
3. Cc1nc(Cl)n(C(=O)N2CCC23CCN(c2nc(OC[C@@]45CCCN4C[C@H](F)C5)nc4c(F)c(-c5ccc(F)c6sc(N)c(C#N)c56)c(Cl)cc24)C3)n1 (stereo partly drawn)
4. N#Cc1c(N)sc2c(F)ccc(-c3c(Cl)cc4c(N5CC6(CCN6C(=O)n6cnc(Cl)n6)CC5C(F)F)nc(OC[C@@]56CCCN5C[C@H](F)C6)nc4c3F)c12 (stereo partly drawn)
5. N#Cc1c(N)sc2c(F)ccc(-c3c(Cl)cc4c(N5CCC6(CCN6C(=O)OC(C(F)(F)F)C(F)(F)F)C5)nc(OC[C@@]56CCCN5C[C@H](F)C6)nc4c3F)c12 (stereo partly drawn)

1: < 5 µM; 2: < 5 µM; 3: < 5 µM; 4: > 5 µM; 5: > 5 µM
